Consider the following compounds; for each one, report its IC50.
Target: CDK2/Cyclin E1 (Homo sapiens, UniProt P24941)
Assay: CDK2/Cyclin E1 Biochemical Assay (TR-FRET), 0.060 mM ATP
Settings: 0.15 μM Rb (Ser780)-biotin substrate, pH7.0, 60 min preincubation, 120 min reaction, room temperature
Protocol: CDK2/Cyclin E1 and CDK1/Cyclin B1 Biochemical Assays Compounds disclosed herein were tested for inhibition of CDK2/Cyclin E1 or CDK1/Cyclin B1 kinase in an assay based on the time-resolved fluorescence-resonance energy transfer (TR-FRET) methodology. […] Plates were incubated at room temperature for 60 minutes, and the TR-FRET signals (ex337 nm, em665 nm/620 nm) were recorded on a PHERAstar FSX plate reader (BMG Labtech). […]
Supply the numeric figure in nM, leaving out any unit text.

Query: Given CC(C)NC(=O)O[C@H]1CC[C@@H](c2cc(Nc3ccc4c(c3F)CN(C3CCC(=O)N(C)C3)S4(=O)=O)n[nH]2)C1 (relative stereo) , state its recorded IC50.
Reply: 15

Query: Given CN1c2ccc(Nc3cc([C@@H]4CC[C@H](OC(=O)NC5CCC56CC6)C4)[nH]n3)cc2CS1(=O)=O (relative stereo) , state its recorded IC50.
Reply: 4.3

Query: Given CC1(NC(=O)O[C@H]2CC[C@@H](c3cc(Nc4ccc5c(c4F)CN(C4CC4)S5(=O)=O)n[nH]3)C2)CC1 (racemic) [Example 119] , state its recorded IC50.
Reply: 2.7

Query: Given CC(C)NC(=O)O[C@H]1CC[C@@H](c2cc(Nc3ccc4c(c3F)CS(=O)(=O)N4CCO)n[nH]2)C1 (single isomer, unassigned) [Example 271a] , state its recorded IC50.
Reply: 3.2

Query: Given CCCNC(=O)O[C@H]1CC[C@@H](c2cc(Nc3ccc4c(c3F)CN(C3CC3)S4(=O)=O)n[nH]2)C1 (single isomer, unassigned) [Example 118a] , state its recorded IC50.
Reply: 14

Query: Given C[C@H]1[C@H](O)CN1C(=O)O[C@H]1CC[C@@H](c2cc(Nc3ccc4c(c3F)CNS4(=O)=O)n[nH]2)C1 (relative stereo) , state its recorded IC50.
Reply: 14

Query: Given CC1(NC(=O)O[C@H]2CC[C@@H](c3cc(Nc4ccc5c(c4F)CN(C4CC4)S5(=O)=O)n[nH]3)C2)CC1 (single isomer, unassigned) [Example 119b] , state its recorded IC50.
Reply: 1.9

Query: Given CC(C)NC(=O)O[C@H]1CO[C@@H](c2cc(Nc3ccc4c(c3F)CNS4(=O)=O)n[nH]2)C1 (relative stereo) , state its recorded IC50.
Reply: 9.3

Query: Given CCCNC(=O)O[C@H]1CC[C@@H](c2cc(Nc3ccc4c(c3F)CS(=O)(=O)N4)n[nH]2)C1 (single isomer, unassigned) [Example 387b] , state its recorded IC50.
Reply: 2

Value source: patent US20260297080A1
